Test system: MKL-2 cells (VP-MCC)
Assay type: cell-based, human
Description: A non-targeting control (Silencer Select Negative Control No. 2 siRNA) and a positive control (AllStars Cell Death Control siRNA) were used as controls. Lipofectamine RNAiMax (Thermo Fisher Scientific, Grand Island, NY) was obtained as the transfection reagent. […] Three siRNAs per gene were arrayed in 384 well plates, one siRNA per well. […] Cell viability was measured by CellTiter-Glo assay following the manufacturer's instructions (G7572; Promega, Madison, WI, USA) 96 h after siRNA transfection. […]
valueType: Percent viability (%)
Numbers only, in %.

// solved cases for Percent viability follow
>  <substance>
GCAGGUUCCUUAUCUGUCAtt (GCAGGUUCCUUAUCUGUCATT; chemistry not given here)

>  <Percent viability, %>
56.1

$$$$
>  <substance>
AGUCCUUUAUUAAGCGCAAtt (AGUCCUUUAUUAAGCGCAATT; chemistry not given here)

>  <Percent viability, %>
80.2

$$$$

Let us examine a further case.
Query block: For the substance UAUUGUUGGUUUCCUUUGC (chemistry not given here) , give its measured Percent viability value.
Result block: 92.8

====

Tested on: UISO cells (VN-MCC)
Experiment: qHTS cell viability (CellTiter-Glo, 72 h; primary and follow-up small molecule screen)
Format: cell-based, human
Conditions: follow-up screen; UISO; replicate 2
Structures can show the parent of a compound that is named as a salt.
Could you please mark condition met for values of Area under the dose-response curve (AUC) UISO Replicate 2 below 400 and condition not met for values at or above it?

Before answering, review these 5 worked examples.
>  <compound>
CC(=O)[C@]1(O)Cc2c(O)c3c(c(O)c2[C@@H](O[C@H]2C[C@H](N)[C@H](O)[C@H](C)O2)C1)C(=O)c1ccccc1C3=O [Idarubicin hydrochloride]

>  <classAssignment>
condition met

$$$$
>  <compound>
O=c1c(O)c(-c2ccccc2)oc2cc(O)cc(O)c12 [Galangin]

>  <classAssignment>
condition not met

$$$$
>  <compound>
COc1ccc(OC)c(-c2nnc3ccc(-c4ccc(OC)c(O[C@@H]5CCOC5)c4)nn23)c1

>  <classAssignment>
condition not met

$$$$
>  <compound>
CN[C@@H]1[C@H](O)[C@H](NC)[C@H]2O[C@@]3(O)C(=O)C[C@@H](C)O[C@H]3O[C@@H]2[C@H]1O.Cl.Cl.O.O.O.O.O [Spectinomycin hydrochloride]

>  <classAssignment>
condition not met

$$$$
>  <compound>
CCN(CC)C(=S)SSC(=S)N(CC)CC

>  <classAssignment>
condition met

$$$$

Query block: Is 400 strictly greater than the compound's reported Area under the dose-response curve (AUC) UISO Replicate 2? compound: COCc1c(C(C)C)nc(C(C)C)c(/C=C/[C@@H](O)C[C@@H](O)CC(=O)O)c1-c1ccc(F)cc1 [Cerivastatin sodium]
Result block: condition met

Query block: Is 400 strictly greater than the compound's reported Area under the dose-response curve (AUC) UISO Replicate 2? compound: Cc1cc(Nc2ncc3c(n2)N(C)C(=O)N(c2cc(NC(=O)c4cccc(C(F)(F)F)c4)ccc2C)C3)n(C)n1
Result block: condition met

Query block: Is 400 strictly greater than the compound's reported Area under the dose-response curve (AUC) UISO Replicate 2? compound: CC#C[C@]1(O)CC[C@H]2[C@@H]3CCC4=CC(=O)CCC4=C3[C@@H](c3ccc(N(C)C)cc3)C[C@@]21C
Result block: condition not met

Query block: Is 400 strictly greater than the compound's reported Area under the dose-response curve (AUC) UISO Replicate 2? compound: CC[C@@]1(O)C(=O)OCc2c1cc1n(c2=O)Cc2cc3c(CN(C)C)c(O)ccc3nc2-1 [Topotecan HCl]
Result block: condition met

Query block: Is 400 strictly greater than the compound's reported Area under the dose-response curve (AUC) UISO Replicate 2? compound: CC(C)=CCC[C@]1(C)C=Cc2c(O)c3c(c(CC=C(C)C)c2O1)O[C@]12C(=C[C@@H]4C[C@H]1C(C)(C)O[C@@]2(C/C=C(/C)C(=O)O)C4=O)C3=O
Result block: condition met

====

System: MCC26 cells (VN-MCC)
Test: qHTS cell viability (CellTiter-Glo, 72 h; primary and follow-up small molecule screen)
Type: cell-based, human
Conditions: NPC library, 8-point DRC, area under dose-response curve
Structures can show the parent of a compound that is named as a salt.
Could you please report measured MCC26_AUC for the items listed next?
One number for each entry.

>  <compound>
Oc1ccc(C2CNCCc3c2cc(O)c(O)c3Cl)cc1 (stereo not drawn)

>  <MCC26_AUC>
437.226

$$$$
>  <compound>
Nc1ccc(C(=O)NCC(=O)O)cc1

>  <MCC26_AUC>
410.554

$$$$
>  <compound>
O=C1CC2(CCCC2)CC(=O)N1CCCCN1CCN(c2ncccn2)CC1

>  <MCC26_AUC>
427.549

$$$$
>  <compound>
COc1ccc(CCN(C)CCCC(C#N)(c2cc(OC)c(OC)c(OC)c2)C(C)C)cc1OC (stereo not drawn) [Gallopamil hydrochloride]

>  <MCC26_AUC>
402.644

$$$$
>  <compound>
O=S1(=O)OC(c2ccc(O)cc2)(c2ccc(O)cc2)c2ccccc21

>  <MCC26_AUC>
404.069

$$$$

Query block: For the compound CSc1ccc2c(c1)N(CCC1CCCCN1C)c1ccccc1S2 (stereo not drawn) , give its measured MCC26_AUC value.
Result block: 403.828

====

Assay: qHTS cell viability (CellTiter-Glo, 72 h; primary screen), control cell line
Assay type: cell-based, human
Conditions: human, HACAT cells; HACAT, Log (M) -8.15343; read-out: Percent viability
valueType: viability at 72 h, 7.02 nM (%)
Numbers only, in %.

Query block: For the compound COCCn1c2c([n+](Cc3cnccn3)c1C)C(=O)c1ccccc1C2=O [sepantronium bromide, reference compound] , give its measured viability at 72 h, 7.02 nM value.
Result block: 98.2

====

Assay: qHTS cell viability (CellTiter-Glo, 72 h; primary screen), control cell line
Type: cell-based
Settings: human, CRL-7250 cells (control cell line); CRL-7250, Log (M) -7.19919; read-out: Percent viability
valueType: viability at 72 h, 63.2 nM (%)
Answers are plain numbers, in %.

Query block: For the molecule COCCn1c2c([n+](Cc3cnccn3)c1C)C(=O)c1ccccc1C2=O [sepantronium bromide, reference compound] , give its measured viability at 72 h, 63.2 nM value.
Result block: 65.6

====

Tested on: VN-MCC cell lines (MCC13, MCC26, UISO)
Experiment: qHTS cell viability, VN-MCC cell lines as a group (mean AUC, VN.MCC.avg)
Type: cell-based, human
Structures can show the parent of a compound that is named as a salt.
valueType: VN-MCC_Avg_AUC
Numbers only.

>  <molecule>
C=CCC1([C@H](C)CCC)C(=O)NC(=O)NC1=O [S-(-)-Secobarbital]

>  <VN-MCC_Avg_AUC>
437.495

$$$$

Batch of 6 molecules: report VN-MCC_Avg_AUC for each.
1. CC(O)C(=O)O.CCOc1ccc2nc3cc(N)ccc3c(N)c2c1.O [Ethacridine lactate hydrate]
2. COc1ccc2c3c1O[C@H]1[C@@H](O)C=C[C@H]4[C@@H](C2)N(C)CC[C@@]341 [Codeine hydrochloride]
3. Cl.Oc1ccc2c3c1O[C@H]1[C@@H](O)C=C[C@H]4[C@@H](C2)NCC[C@@]341 [N-Normorphine hydrochloride]
4. CCC(=O)OC1(c2ccccc2)CCN(C)CC1.Cl
5. CCOc1cc(N2CCC(O)CC2)ccc1Nc1ncc2c(n1)N(C)c1ccccc1C(=O)N2C [XMD8-92]
6. CC[C@H]1C[C@@H]2C[C@H]3c4[nH]c5ccc(OC)cc5c4CCN(C2)[C@@H]13.Cl [Ibogaine hydrochloride]

Result block:
[428.861, 391.354, 438.301, 457.741, 464.751, 424.699]

Query block: For the molecule COc1cc(C[C@@H](C)N)c(OC)cc1C.Cl , give its measured VN-MCC_Avg_AUC value.
Result block: 433.35

====

Could you please report measured Percent viability for the items listed next?
System: MKL-1 cells (VP-MCC)
Assay: qHTS cell viability (CellTiter-Glo, 72 h; primary and follow-up small molecule screen)
Format: cell-based, human
Settings: MKL1, 72h, Log (M) -9.63055

>  <compound>
Cc1cc(Nc2cc(N3CCN(C)CC3)nc(Sc3ccc(NC(=O)C4CC4)cc3)n2)[nH]n1 [Tozasertib, reference compound]

>  <measValue>
98.1%

$$$$
>  <compound>
O=C(Nc1cccc(Cl)c1)Nc1ncc(CCNc2ncnc3ccsc23)s1 [SNS-314, reference compound]

>  <measValue>
103.4%

$$$$

Batch of 2 compounds: report Percent viability for each.
1. CCS(=O)(=O)c1cccc(-c2cc(C(=O)NC3CCN(C)CC3)c(C)c3[nH]c4ncc(C)cc4c23)c1 [TAK-901, reference compound]
2. CCn1cc(-c2ccnc3[nH]c(-c4cccc(CN(C)C)c4)cc23)c(-c2ccc(NC(=O)N(C)C)cc2)n1 [GSK-1070916A, reference compound]

Result block:
106.9%
94.1%
